Molecular target: GPR6 receptor expressed in CHO-K1 cells (Homo sapiens, UniProt P46095)
Construct: expressed in transfected cells
Sequence (P46095 whole entry): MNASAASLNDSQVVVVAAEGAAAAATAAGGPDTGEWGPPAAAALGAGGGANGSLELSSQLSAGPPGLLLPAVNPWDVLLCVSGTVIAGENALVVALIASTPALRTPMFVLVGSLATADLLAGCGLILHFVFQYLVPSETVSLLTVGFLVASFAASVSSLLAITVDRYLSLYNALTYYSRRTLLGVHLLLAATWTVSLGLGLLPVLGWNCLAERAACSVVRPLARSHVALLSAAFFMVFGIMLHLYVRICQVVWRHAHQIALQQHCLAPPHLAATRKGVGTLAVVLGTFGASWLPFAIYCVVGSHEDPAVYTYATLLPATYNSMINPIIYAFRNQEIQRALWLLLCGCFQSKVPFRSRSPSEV
Assay: In vitro inhibition of cAMP (EC50), cell-based HTRF cAMP assay
Conditions: inhibition of constitutive cAMP activity of GPR6 in CHO-K1 cells
Give pEC50, in vitro inhibition of cAMP for every item shown.
Answers are plain numbers.

>>> result_number("COc1nc(C)ccc1C(=O)Nc1cnc(C#N)nc1N1CCC(Oc2ccc(F)cc2F)CC1")
7.1
>>> result_number("COc1ncccc1C(=O)Nc1cc(C#N)ccc1N1CCN(Cc2ccc(F)cc2)CC1")
7.1
>>> result_number("CC(C)c1ccc(C(=O)Nc2cc(C#N)ccc2N2CCC(Oc3ccc(F)cc3F)CC2)c(=O)n1C")
6.4
>>> result_number("Cc1onc(C(=O)Nc2cc(C#N)ccc2N2CCC(Oc3ccc(F)cc3F)CC2)c1C")
7.0
>>> result_number("COc1nn(C)cc1C(=O)Nc1cc(C#N)cnc1N1CCN(Cc2ccc(C#N)cc2)CC1")
6.4
>>> result_number("N#Cc1ccc(N2CCC(Oc3ccc(F)cc3F)CC2)c(NC(=O)c2ccc[nH]c2=O)c1")
7.0

Give pEC50, in vitro inhibition of cAMP for each listed item.
1. N#Cc1ccc(N2CCC(Oc3ccc(F)cc3F)CC2)c(NC(=O)c2ncc(F)cc2F)c1
2. COc1ncccc1C(=O)Nc1cc(C#N)c(C#N)cc1N1CCC(Oc2ccc(F)cc2F)CC1
3. COc1ncccc1C(=O)Nc1cc(C(=O)N(C)C)c(C#N)cc1N1CCC(Oc2ccc(F)cc2F)CC1
4. COc1ncccc1C(=O)Nc1cc(S(C)(=O)=O)ccc1N1CCC(Oc2ccc(F)cc2F)CC1
5. COc1c(Cl)ccc(Cl)c1C(=O)Nc1cc(C#N)ccc1N1CCC(Oc2ccc(F)cc2F)CC1
6. COc1ncccc1C(=O)Nc1cc(C#N)ccc1N1CCC(C(=O)c2ccccc2)CC1

1: 6.5; 2: 7.1; 3: 7.4; 4: 7.4; 5: 5.1; 6: 6.4

Quick batch: pEC50, in vitro inhibition of cAMP for everything below.
1. N#Cc1ccc(N2CCC(Oc3ccc(F)cc3F)CC2)c(NC(=O)c2cnc3ccccn3c2=O)c1
2. [2H]C([2H])([2H])N(C(=O)c1cc(N2CCC(Oc3ccc(F)cc3F)CC2)c(NC(=O)c2cccnc2OC)cn1)C([2H])([2H])[2H]

1: 6.8; 2: 7.1

Items follow; give pEC50, in vitro inhibition of cAMP for each.
1. COc1nn(C)cc1C(=O)Nc1cc(C#N)cnc1N1CCN(Cc2c(F)cc(Cl)cc2F)CC1
2. COc1ncccc1C(=O)Nc1cc(CO)cnc1N1CCC(Oc2ccc(F)cc2F)CC1

[7.1, 7.0]
